Entry source: patent US20250051277A1

Assay type: physicochemical
test conditions: SGF with pepsin, pH 1.5, 37° C., 0.5 mM; time 4 h
endpoint label: Condition 1 Conversion (%)
Numbers only, in %.

Here is how some molecules turned out for Condition 1 Conversion (%).
molecule="COc1ccc([C@]23CCN(C)[C@H]2CC2(CC3)OCC(C(=O)O)O2)cc1OC (some centres unmarked) [Compound 214]" endpoint_label="Condition 1 Conversion (%)" readout_unit=% val=0
molecule="COc1ccc([C@@]23CCC(=NNC(C)=O)C[C@@H]2N(C)CC3)cc1OC [Compound 222]" endpoint_label="Condition 1 Conversion (%)" readout_unit=% val=100
molecule="COc1ccc([C@@]23CCC(OC(=O)C(C)(C)C)=C[C@@H]2N(C)CC3)cc1OC [Compound 309]" endpoint_label="Condition 1 Conversion (%)" readout_unit=% val=0
molecule="COc1ccc([C@@]23CCC(=NNc4ccc(C(=O)O)cc4)C[C@@H]2N(C)CC3)cc1OC [Compound 363]" endpoint_label="Condition 1 Conversion (%)" readout_unit=% val=27.1
molecule="COc1ccc([C@@]23CCC(OC(=O)C(c4ccccc4)c4ccccc4)=C[C@@H]2N(C)CC3)cc1OC [Compound 306]" endpoint_label="Condition 1 Conversion (%)" readout_unit=% val=0
molecule="COc1ccc([C@]23CCN(C)[C@H]2CC2(CC3)O[C@@H]([C@@H](O)Cn3c4nc(=O)[nH]c(=O)c-4nc4cc(C)c(C)cc43)[C@@H](CO)O2)cc1OC (some centres unmarked) [Compound 196]" endpoint_label="Condition 1 Conversion (%)" readout_unit=% val=0
molecule="COc1ccc([C@@]23CCC(=NOCC4CC4)C[C@@H]2N(C)CC3)cc1OC [Compound 205]" endpoint_label="Condition 1 Conversion (%)" readout_unit=% val=16.7
molecule="COc1ccc([C@@]23CCC(=NOCC(=O)O)C[C@@H]2N(C)CC3)cc1OC [Compound 201]" endpoint_label="Condition 1 Conversion (%)" readout_unit=% val=7.1

Provide the reported Condition 1 Conversion (%) of each entry below, same order.
1. COc1ccc([C@@]23CCC(=NNC(=O)CC(CC(=O)O)CC(C)C)C[C@@H]2N(C)CC3)cc1OC (some centres unmarked) [Compound 242]
2. COc1ccc([C@@]23CCC(=NNc4ccc5ccccc5n4)C[C@@H]2N(C)CC3)cc1OC [Compound 366]

98.02
94.1

Provide the reported Condition 1 Conversion (%) of each entry below, same order.
1. COc1ccc([C@@]23CCC(=NNCc4cccc(C)c4)C[C@@H]2N(C)CC3)cc1OC [Compound 367]
2. COc1ccc([C@@]23CC/C(=N\NC(=O)c4cccnc4)C[C@@H]2N(C)CC3)cc1OC [Compound 036]
3. COc1ccc([C@@]23CCC(OC(=O)c4ccc(N(C)C)cc4)=C[C@@H]2N(C)CC3)cc1OC [Compound 355]
4. COc1ccc([C@@]23CCC(=NOCCON=C4CC[C@@]5(c6ccc(OC)c(OC)c6)CCN(C)[C@H]5C4)C[C@@H]2N(C)CC3)cc1OC [Compound 210]

100
100
0
14.75

Provide the reported Condition 1 Conversion (%) of each entry below, same order.
1. COc1ccc([C@@]23CC/C(=N\NC(=O)c4ccccc4C(=O)O)C[C@@H]2N(C)CC3)cc1OC [Compound 244]
2. COc1ccc([C@@]23CCC(=NOCc4ccccc4)C[C@@H]2N(C)CC3)cc1OC [Compound 208]

1. 100
2. 11.5

Provide the reported Condition 1 Conversion (%) of each entry below, same order.
1. COc1ccc([C@@]23CCC(=NNC(=O)Nc4ccc(S(C)(=O)=O)cc4)C[C@@H]2N(C)CC3)cc1OC [Compound 255]
2. CO/N=C1\CC[C@@]2(c3ccc(OC)c(OC)c3)CCN(C)[C@H]2C1 [Compound 038]

1: 88.1; 2: 31.3

Provide the reported Condition 1 Conversion (%) of each entry below, same order.
1. COc1ccc([C@@]23CCC(=NOCCOc4ccccc4)C[C@@H]2N(C)CC3)cc1OC [Compound 234]
2. COc1ccc([C@@]23CCC(=NNCc4cccnc4)C[C@@H]2N(C)CC3)cc1OC [Compound 370]
3. COc1ccc([C@@]23CCC(=NNC(=O)c4ccncc4)C[C@@H]2N(C)CC3)cc1OC [Compound 157]
4. COc1ccc(C23CCC(=NNC(=O)Nc4ccccc4)C[C@@H]2N(C)CC3)cc1OC (stereo in doubt) [Compound 198]
5. COc1ccc([C@@]23CCC(=NNc4ncccc4C)C[C@@H]2N(C)CC3)cc1OC [Compound 364]
6. COc1ccc([C@@]23CCC(=NNc4ccc(Cl)cc4)C[C@@H]2N(C)CC3)cc1OC [Compound 221]
7. COc1ccc([C@@]23CC/C(=N\NC(=O)NCCc4cccs4)C[C@@H]2N(C)CC3)cc1OC [Compound 256]
8. CCC(=O)OC1=C[C@@H]2N(C)CC[C@]2(c2ccc(OC)c(OC)c2)CC1 [Compound 317]

2.16
100
100
1
77.07
17.5
23
0

Provide the reported Condition 1 Conversion (%) of each entry below, same order.
1. COc1ccc([C@]23CCN(C)[C@H]2CC2(CC3)OCC(c3ccc([N+](=O)[O-])cc3)O2)cc1OC (some centres unmarked) [Compound 114]
2. COc1ccc([C@@]23CC/C(=N/OC45CC6CC(CC(C6)C4)C5)C[C@@H]2N(C)CC3)cc1OC [Compound 274]
3. COc1ccc([C@@]23CCC(=NNC(=O)C45CC6CC(CC(C6)C4)C5)C[C@@H]2N(C)CC3)cc1OC [Compound 271]

[0, 35.5, 100]
